What viability, T/C was measured for each of the following?
system: 186277-243-T-J2-PDC complex spheroid viability; test: Anticancer human tumor 186277-243-T-J2-PDC patient-derived colon adenocarcinoma cell line growth inhibition [GQUAD]; conditions: second compound 3.16 µM; first compound 0.316 µM; active compounds read low;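 also: spheroids exposed to drugs for 7 days; 100% = DMSO vehicle control viability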
# output: bare number, implied unit %

Query: Bench note: what viability, T/C did Cc1[nH]c2ccccc2c1CCNCc1ccc(/C=C/C(=O)NO)cc1 + Cc1[nH]c2ccc(F)cc2c1-c1nc2c3cccnc3c3ncccc3c2[nH]1 show?
Result: 0.47

Query: Which viability, T/C is listed for CC1COCCN1c1cc(C2(O)CC3CCC(C2)O3)c2cnn(-c3ccn[nH]3)c2n1 (stereo unspecified) + Cc1[nH]c2ccc(F)cc2c1-c1nc2c3cccnc3c3ncccc3c2[nH]1 ?
Result: 6.36

Query: For C=CCn1c(=O)c2cnc(Nc3ccc(N4CCN(C)CC4)cc3)nc2n1-c1cccc(C(C)(C)O)n1 + CN(C)c1ccc(Nc2c3ccc(NC(=O)CCN4CCCC4)cc3nc3cc(NC(=O)CCN4CCCC4)ccc23)cc1 , what is its reported viability, T/C?
Result: 15.4

Query: Field request: viability, T/C | item: CC[C@@]1(O)C(=O)OCc2c1cc1n(c2=O)Cc2cc3c(CN(C)C)c(O)ccc3nc2-1 + Cc1[nH]c2ccc(F)cc2c1-c1nc2c3cccnc3c3ncccc3c2[nH]1
Result: 57.4

Query: Consider the molecule shown here: CC(C)n1c(=O)n(C)c2cnc3cc(F)c(-c4ccc(OCCCN5CCCCC5)nc4)cc3c21 + CN(C)c1ccc(Nc2c3ccc(NC(=O)CCN4CCCC4)cc3nc3cc(NC(=O)CCN4CCCC4)ccc23)cc1 What is its recorded viability, T/C?
Result: 97.2

Query: I'd like to know its viability, T/C. The molecule in question is O=C(c1cc(Cc2n[nH]c(=O)c3ccccc23)ccc1F)N1CCN(C(=O)C2CC2)CC1 + Cc1cnc(CNC(=O)c2c(=O)c3ccc(N4CCCN(C)CC4)nc3n3c2sc2ccccc23)cn1
Result: 38.3

Query: Fill in the blank: the reported viability, T/C of COc1cc(C2c3cc4c(cc3C(OC3OC5COC(C)OC5C(O)C3O)C3COC(=O)C23)OCO4)cc(OC)c1O (stereo unspecified) + CN(C)c1ccc(Nc2c3ccc(NC(=O)CCN4CCCC4)cc3nc3cc(NC(=O)CCN4CCCC4)ccc23)cc1 is ____.
Result: 81.1

Query: Find the recorded viability, T/C belonging to Cn1ncnc1[C@H]1c2n[nH]c(=O)c3cc(F)cc(c23)N[C@@H]1c1ccc(F)cc1 + Cc1[nH]c2ccc(F)cc2c1-c1nc2c3cccnc3c3ncccc3c2[nH]1 and report it.
Result: 95

Query: Form field: reported viability, T/C of O=C(c1cc(Cc2n[nH]c(=O)c3ccccc23)ccc1F)N1CCN(C(=O)C2CC2)CC1 + CN(C)c1ccc(Nc2c3ccc(NC(=O)CCN4CCCC4)cc3nc3cc(NC(=O)CCN4CCCC4)ccc23)cc1
Result: 95.3

Query: Requested field: viability, T/C. Item: Cc1[nH]c2ccccc2c1CCNCc1ccc(/C=C/C(=O)NO)cc1 + Cc1cnc(CNC(=O)c2c(=O)c3ccc(N4CCCN(C)CC4)nc3n3c2sc2ccccc23)cn1
Result: 0.11

Query: Look up viability, T/C: O=c1[nH]cc(F)c(=O)[nH]1 + Cc1[nH]c2ccc(F)cc2c1-c1nc2c3cccnc3c3ncccc3c2[nH]1
Result: 110

Query: For the molecule shown here, O=C(NO)c1cnc(N2CCN(S(=O)(=O)c3ccc4ccccc4c3)CC2)nc1 + CN(C)c1ccc(Nc2c3ccc(NC(=O)CCN4CCCC4)cc3nc3cc(NC(=O)CCN4CCCC4)ccc23)cc1 , give the reported viability, T/C.
Result: 9.96

Query: Report viability, T/C for C=CC(=O)N1CCN(c2nc(=O)n(-c3c(C)ccnc3C(C)C)c3nc(-c4c(O)cccc4F)c(F)cc23)C(C)C1 (stereo unspecified) + Cc1cnc(CNC(=O)c2c(=O)c3ccc(N4CCCN(C)CC4)nc3n3c2sc2ccccc23)cn1 please.
Result: 52.4

Query: Which viability, T/C value belongs to Cn1ncnc1[C@H]1c2n[nH]c(=O)c3cc(F)cc(c23)N[C@@H]1c1ccc(F)cc1 + CN(C)c1ccc(Nc2c3ccc(NC(=O)CCN4CCCC4)cc3nc3cc(NC(=O)CCN4CCCC4)ccc23)cc1 ?
Result: 94.6

Query: For the molecule shown here, C=CC(=O)N1CCN(c2nc(=O)n(-c3c(C)ccnc3C(C)C)c3nc(-c4c(O)cccc4F)c(F)cc23)C(C)C1 (stereo unspecified) + CN(C)c1ccc(Nc2c3ccc(NC(=O)CCN4CCCC4)cc3nc3cc(NC(=O)CCN4CCCC4)ccc23)cc1 , give the reported viability, T/C.
Result: 97.6

Query: What does the record list as viability, T/C for COc1ncnc(C2CC2)c1-c1ncc2cnn(Cc3ccc(-c4nc(C(F)(F)F)cn4C(C)C)cc3)c2n1 + Cc1cnc(CNC(=O)c2c(=O)c3ccc(N4CCCN(C)CC4)nc3n3c2sc2ccccc23)cn1 ?
Result: 43.6

Query: Please report the recorded viability, T/C for CCCS(=O)(=O)Nc1ccc(F)c(C(=O)c2c[nH]c3ncc(-c4ccc(Cl)cc4)cc23)c1F + CN(C)c1ccc(Nc2c3ccc(NC(=O)CCN4CCCC4)cc3nc3cc(NC(=O)CCN4CCCC4)ccc23)cc1 .
Result: 86.5

Query: Which viability, T/C is reported for this molecule? CCc1c2c(nc3ccc(O)cc13)-c1cc3c(c(=O)n1C2)COC(=O)[C@]3(O)CC + Cc1cnc(CNC(=O)c2c(=O)c3ccc(N4CCCN(C)CC4)nc3n3c2sc2ccccc23)cn1
Result: 1.29

Query: Consider the molecule CC1COCCN1c1cc(C2(S(C)(=N)=O)CC2)nc(-c2ccnc3[nH]ccc23)n1 (stereo unspecified) + Cc1[nH]c2ccc(F)cc2c1-c1nc2c3cccnc3c3ncccc3c2[nH]1 and give its measured viability, T/C.
Result: 97.5

Query: Entry CC(C)(O)C1CCC(Nc2ccc3ncc(-c4cccc(C(F)(F)F)c4)n3n2)CC1 (stereo unspecified) + Cc1cnc(CNC(=O)c2c(=O)c3ccc(N4CCCN(C)CC4)nc3n3c2sc2ccccc23)cn1 : reported viability, T/C = ?
Result: 38.7

Query: So what does the record say about viability, T/C for O=c1[nH]cc(F)c(=O)[nH]1 + Cc1cnc(CNC(=O)c2c(=O)c3ccc(N4CCCN(C)CC4)nc3n3c2sc2ccccc23)cn1 ?
Result: 51.5

Values from PubChem BioAssay AID2060512
